Ref: the supplement of paper PMC10702517

assay: chemical recovery from spiked human plasma; higher = better extraction; conditions: pooled human plasma; extraction method: solvent precipitation (ACN + hexane)
Categories are assigned from the measured chemical recovery using these intervals: bottom bin (below 60%), middle bin (60% to below 70%), top bin (70% or more)

{"molecule": "Cc1nnc(-c2ccccc2)c(=O)[nH]1", "class assignment": "top bin"}
{"molecule": "O=S(=O)(O)CCNC1CCCCC1", "class assignment": "top bin"}
{"molecule": "CCOP(=S)(OCC)SCSCC [Phorate]", "class assignment": "bottom bin"}
{"molecule": "Oc1c(Br)cc(Br)cc1Br", "class assignment": "bottom bin"}
{"molecule": "Nc1cnn(-c2ccccc2)c(=O)c1Cl", "class assignment": "top bin"}
{"molecule": "O=C(O)C(F)(OC(F)(F)C(F)(F)C(F)(F)F)C(F)(F)F (centres undefined)", "class assignment": "middle bin"}
{"molecule": "Cn1c(=O)c2[nH]cnc2n(C)c1=O", "class assignment": "top bin"}
{"molecule": "CC(C)(C)C(O)(CCc1ccc(Cl)cc1)Cn1cncn1 (centres undefined)", "class assignment": "top bin"}
{"molecule": "N=C1NCCN1Cc1ccc(Cl)nc1", "class assignment": "top bin"}
{"molecule": "O=[N+]([O-])c1ccc(O)c([N+](=O)[O-])c1", "class assignment": "top bin"}
{"molecule": "CC(NC(C)(C)C)C(=O)c1cccc(Cl)c1 (centres undefined)", "class assignment": "bottom bin"}
{"molecule": "Cc1c(N(C)C)c(=O)n(-c2ccccc2)n1C", "class assignment": "top bin"}
{"molecule": "CN/C(=N\\CCSCc1nc[nH]c1C)NC#N", "class assignment": "bottom bin"}
{"molecule": "CN1C(=O)CC[C@H]1c1cccnc1", "class assignment": "top bin"}
{"molecule": "N#CSCSc1nc2ccccc2s1", "class assignment": "bottom bin"}
{"molecule": "Cc1c(Br)c(Br)c(C)c(Br)c1Br", "class assignment": "top bin"}
{"molecule": "CCOP(=S)(OCC)Oc1cc(C)nc(C(C)C)n1", "class assignment": "middle bin"}
{"molecule": "O=C(Nc1ccccc1)NC1CCCCC1", "class assignment": "top bin"}
{"molecule": "COc1cc(Cl)c(OC)cc1N", "class assignment": "bottom bin"}
{"molecule": "CCCCC(C#N)(Cn1cncn1)c1ccc(Cl)cc1 (centres undefined)", "class assignment": "top bin"}
{"molecule": "NC(=O)/N=C1\\SCCN1Cc1ccc(Cl)nc1 [Thiacloprid amide]", "class assignment": "top bin"}
{"molecule": "O=C(O)CCC(=O)c1ccc(F)cc1", "class assignment": "middle bin"}
{"molecule": "C=CCc1ccc(O)c(OC)c1", "class assignment": "bottom bin"}
{"molecule": "CC(C)C[C@H](CN)CC(=O)O", "class assignment": "middle bin"}
{"molecule": "O=S(=O)(O)c1ccc2[nH]c(-c3ccccc3)nc2c1", "class assignment": "bottom bin"}
{"molecule": "Fc1ccc(Oc2ccnc3cc(Cl)cc(Cl)c23)cc1", "class assignment": "top bin"}
{"molecule": "CN(C/C=C/C#CC(C)(C)C)Cc1cccc2ccccc12", "class assignment": "top bin"}
{"molecule": "CC(C)NCC(O)COc1ccc(CC(=O)O)cc1 (centres undefined) [Metoprolol-acid]", "class assignment": "bottom bin"}
{"molecule": "Cl[C@H]1[C@H](Cl)[C@@H](Cl)[C@H](Cl)[C@@H](Cl)[C@@H]1Cl", "class assignment": "bottom bin"}
{"molecule": "Nc1cccc2cc(S(=O)(=O)O)ccc12", "class assignment": "middle bin"}

----------
assay: chemical recovery from spiked human plasma; higher = better extraction; details: pooled human plasma; extraction method: solvent precipitation (ACN + hexane)
// rule not met strictly below 70% in chemical recovery; rule met otherwise

{"compound": "Oc1ccc(C(c2ccc(O)cc2)(C(F)(F)F)C(F)(F)F)cc1", "class assignment": "rule not met"}
{"compound": "Cc1nccn1CC1CCc2c(c3ccccc3n2C)C1=O (stereo not drawn)", "class assignment": "rule met"}
{"compound": "COCCN(C(=O)CCl)c1c(C)cccc1C", "class assignment": "rule not met"}
{"compound": "CC(C)(C)C(=O)C(Oc1ccc(Cl)cc1)n1ccnc1 (stereo not drawn)", "class assignment": "rule met"}
{"compound": "CN(C)CCC=C1c2ccccc2CCc2ccccc21", "class assignment": "rule met"}
{"compound": "O=P(Oc1ccccc1)(Oc1ccccc1)Oc1ccccc1 [Triphenylphosphate]", "class assignment": "rule met"}
{"compound": "Clc1ccc(C(c2ccc(Cl)cc2)C(Cl)(Cl)Cl)cc1", "class assignment": "rule not met"}
{"compound": "CC(C)CC(C)NC1=CC(=O)C(Nc2ccccc2)=CC1=O (stereo not drawn)", "class assignment": "rule met"}
{"compound": "O=S(=O)(O)C(F)(F)C(F)(F)C(F)(F)C(F)(F)C(F)(F)F", "class assignment": "rule met"}
{"compound": "Cc1cccc(C)c1N", "class assignment": "rule not met"}
{"compound": "NC(=O)N1c2ccccc2C=Cc2ccccc21 [Carbamazepine]", "class assignment": "rule met"}
{"compound": "Cn1cc(C(=O)Nc2ccccc2-c2cc(F)c(F)c(F)c2)c(C(F)F)n1", "class assignment": "rule met"}
{"compound": "Clc1ccc2[nH]nnc2c1", "class assignment": "rule not met"}
{"compound": "O=S(=O)(c1ccccc1)c1ccccc1", "class assignment": "rule not met"}
{"compound": "Cc1ccc(S(N)(=O)=O)cc1 [p-Toluenesulfonamide]", "class assignment": "rule met"}
{"compound": "Clc1ccc2c(c1)CCc1cccnc1C2=C1CCNCC1", "class assignment": "rule not met"}
{"compound": "CCN(CC)c1ccc2c(C)cc(=O)oc2c1", "class assignment": "rule met"}
{"compound": "CC(C)(Oc1ccc(CCNC(=O)c2ccc(Cl)cc2)cc1)C(=O)O [Bezafibrate]", "class assignment": "rule met"}
{"compound": "Sc1ncnc2nc[nH]c12", "class assignment": "rule not met"}
{"compound": "CC(Oc1ccc(Oc2cnc3cc(Cl)ccc3n2)cc1)C(=O)O (stereo not drawn)", "class assignment": "rule not met"}
{"compound": "CCOCCN(C(=O)CCl)C(=C(C)C)c1ccccc1", "class assignment": "rule not met"}
{"compound": "CCCCCCCCn1sccc1=O", "class assignment": "rule not met"}
{"compound": "Cc1c2ccccc2cc2c1cc(Br)c1ccccc12 [5-Bromo-7-methylbenzo[a]anthracene]", "class assignment": "rule not met"}
{"compound": "CNC(=O)Oc1ccccc1OC(C)C", "class assignment": "rule not met"}
{"compound": "Cc1ccc2c(c1)c1cccc3ccc4cccc2c4c31 [10-Methylbenzo[e]pyrene]", "class assignment": "rule not met"}
{"compound": "Cc1c(N)c(=O)n(-c2ccccc2)n1C [4-Aminoantipyrine]", "class assignment": "rule not met"}
{"compound": "N#Cc1nn(-c2c(Cl)cc(C(F)(F)F)cc2Cl)c(N)c1C(F)(F)F", "class assignment": "rule not met"}
{"compound": "CNC(=O)c1ccccc1 [N-Methylbenzamide]", "class assignment": "rule met"}
{"compound": "Nc1ccc2c(n1)[nH]c1ccccc12 [2-Amino-9H-pyrido[2,3-b]indole-(AalphaC)]", "class assignment": "rule not met"}
{"compound": "CC(CN1c2ccccc2Sc2ccccc21)N(C)C (stereo not drawn)", "class assignment": "rule met"}
{"compound": "COC(=O)Nc1nc2cc(C(=O)c3ccccc3)ccc2[nH]1", "class assignment": "rule met"}
{"compound": "COc1ccc2[nH]cc(CCNC(C)=O)c2c1", "class assignment": "rule met"}
{"compound": "N#Cc1nn(-c2c(Cl)cc(C(F)(F)F)cc2Cl)c(N)c1S(=O)(=O)C(F)(F)F", "class assignment": "rule not met"}
{"compound": "O=C(Nc1ccc(F)cc1F)c1cccnc1Oc1cccc(C(F)(F)F)c1", "class assignment": "rule not met"}
{"compound": "Cc1nccc2c1[nH]c1ccccc12", "class assignment": "rule met"}

----------
assay: chemical recovery from spiked human plasma; higher = better extraction; conditions: pooled human plasma; extraction method: SPE only (HLB 96-well), PES comparison experiment
// false strictly below 40% in chemical recovery; true otherwise

{"compound": "CCCCCCCCOC(=O)CCc1cc(C(C)(C)C)c(O)c(C(C)(C)C)c1 [Octyl-3,5-di-tert-butyl-4-hydroxyhydrocinnamate]", "class assignment": "false"}
{"compound": "COCN(COC)c1nc(N(COC)COC)nc(N(COC)COC)n1 [Hexa(methoxymethyl)melamine]", "class assignment": "false"}
{"compound": "COc1cc(Cl)ccc1Oc1ccc(Cl)cc1Cl [Triclosan-methyl]", "class assignment": "false"}
{"compound": "CSc1nnc(C(C)(C)C)c(=O)n1N [Metribuzin]", "class assignment": "true"}
{"compound": "CCCN(CCC)C(=O)SCc1ccccc1 [Prosulfocarb]", "class assignment": "false"}
{"compound": "CCC[C@@H]1C[C@@H](C(=O)N[C@@H]([C@H]2O[C@H](SC)[C@H](O)[C@@H](O)[C@H]2O)[C@@H](C)O)N(C)C1 [Lincomycin]", "class assignment": "true"}
{"compound": "NCC1(CC(=O)O)CCCCC1 [Gabapentin]", "class assignment": "false"}
{"compound": "CC(C)c1ccc2cc(C(C)C)ccc2c1 [2,6-Diisopropylnaphthalene]", "class assignment": "false"}
{"compound": "CCOP(=S)(OCC)Oc1cc(C)nc(C(C)C)n1 [Diazinon]", "class assignment": "false"}
{"compound": "CCc1cccc(C)c1N(C(=O)CS(=O)(=O)O)[C@@H](C)C(=O)O [Metolachlor-NOA 413-173]", "class assignment": "false"}
{"compound": "Cl[C@H]1[C@H](Cl)[C@@H](Cl)[C@H](Cl)[C@H](Cl)[C@H]1Cl [alpha-HCH]", "class assignment": "false"}
{"compound": "COc1c(C)c2c(c(O)c1C/C=C(\\C)CCC(=O)O)C(=O)OC2 [Mycophenolic acid]", "class assignment": "true"}
{"compound": "CCCCCCCCCCC[C@@H](C[C@@H]1OC(=O)[C@H]1CCCCCC)OC(=O)[C@H](CC(C)C)NC=O [Orlistat]", "class assignment": "false"}
{"compound": "CC(C)(C)c1ccc(C(=O)CCCN2CCC(OC(c3ccccc3)c3ccccc3)CC2)cc1 [Ebastin]", "class assignment": "false"}
{"compound": "CCNc1nc(NCC)nc(SC)n1 [Simetryn]", "class assignment": "true"}
{"compound": "CC(CCl)OP(=O)(OC(C)CCl)OC(C)CCl (stereo not drawn) [Tris(1-chloro-2-propyl)phosphate]", "class assignment": "true"}
